# PROCEDURE SUMMARY: Cmax in Swiss CD1 mouse at 10 mg/kg, ip measured upto 7 hrs by LC-MS analysis
# Format: ADME, organism-based
# Parameters: dose 10 mg/kg, route intraperitoneal
# EXPERIMENTAL CONTEXT: in vivo
VALUE KIND: Cmax (nM)
Value expressed in nM; do not type the unit.

Assign Cmax to the following record: CCC/C(=C\c1cc(OCc2ccc3nc(C(F)(F)F)cc(OC)c3c2)ccc1OCC1CCN(C)CC1)C(=O)O
380

Assign Cmax to the following record: CCC/C(=C\c1cc(OCc2ccc3nc(C(F)(F)F)cc(OC)c3c2)ccc1OCCN1CCN(C)CC1)C(=O)O
446

###

# EXPERIMENTAL SYSTEM: Peroxisome proliferator-activated receptor gamma (Homo sapiens, UniProt P37231)
# Sequence (P37231 whole entry, the tested form may be a part): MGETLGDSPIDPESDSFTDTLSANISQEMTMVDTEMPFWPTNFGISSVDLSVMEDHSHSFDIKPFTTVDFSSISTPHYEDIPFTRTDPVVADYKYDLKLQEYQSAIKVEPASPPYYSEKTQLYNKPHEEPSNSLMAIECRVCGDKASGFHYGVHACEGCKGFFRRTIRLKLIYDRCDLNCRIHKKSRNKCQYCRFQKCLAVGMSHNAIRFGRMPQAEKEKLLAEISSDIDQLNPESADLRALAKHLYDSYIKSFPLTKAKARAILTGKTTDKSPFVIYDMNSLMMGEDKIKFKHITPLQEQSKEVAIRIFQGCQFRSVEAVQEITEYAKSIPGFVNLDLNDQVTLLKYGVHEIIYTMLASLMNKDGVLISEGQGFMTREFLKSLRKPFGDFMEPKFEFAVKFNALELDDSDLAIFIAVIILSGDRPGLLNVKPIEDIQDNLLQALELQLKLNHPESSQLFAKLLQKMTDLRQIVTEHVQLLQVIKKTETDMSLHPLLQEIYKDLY
# PROCEDURE SUMMARY: Antagonist actvity in pFA-GAL4-DBD fused PPARgamma LBD (unknown origin) transfected in HEK293T cells assessed as inhibition of rosiglitazone-induced PPARgamma transactivation incubated for 24 hrs by luciferase reporter gene assay
# Assay type: cell-based
# EXPERIMENTAL CONTEXT: read-out: IC50
VALUE KIND: pIC50
Answer as the number alone; pIC50 is minus log10 of concentration in mol/L.

Assign pIC50 to the following record: CCC/C(=C\c1cc(OCc2ccc3nc(C(F)(F)F)cc(OC)c3c2)ccc1OCc1ccccc1F)C(=O)O
5.46

Assign pIC50 to the following record: CCC/C(=C\c1cc(OCc2ccc3nc(C(F)(F)F)cc(OC)c3c2)ccc1OCCN1CCN(C)CC1)C(=O)O
5.33

Assign pIC50 to the following record: COc1cc(C(F)(F)F)nc2ccc(COc3ccc(OCC4CCN(C)CC4)c(/C=C(\CCC4CC4)C(=O)O)c3)cc12
5.12

Assign pIC50 to the following record: COc1cc(C(F)(F)F)nc2ccc(COc3ccc(OCc4ccc(F)cc4)c(/C=C(\CC4CC4)C(=O)O)c3)cc12
5.08

Assign pIC50 to the following record: CCC/C(=C\c1cc(OCc2ccc3nc(C(F)(F)F)cc(OC)c3c2)ccc1OCc1cccc(F)c1)C(=O)O
5.41

Data origin: ChEMBL document CHEMBL4364346
